System: MOLM-14 cells
Test Summary: Inhibitory concentrations (IC50, IC12.5) of kinase inhibitor panel for MOLM-14 cells
Format: cell-based, human
Test Context: Homo sapiens, concentration used for 48 h treatment
pIC50: −log10 of the molar value.
Mark n for pIC50 values under 6, and y for everything at or above.

INSERT INTO results (compound, discrete_label) VALUES
  ('CCN(CC)CCNC(=O)c1c(C)[nH]c(/C=C2\C(=O)Nc3ccc(F)cc32)c1C [sunitinib]', 'y'),
  ('N#CC[C@H](C1CCCC1)n1cc(-c2ncnc3[nH]ccc23)cn1 [ruxolitinib]', 'n'),
  ('Cc1nc(Nc2ncc(C(=O)Nc3c(C)cccc3Cl)s2)cc(N2CCN(CCO)CC2)n1 [dasatinib]', 'y'),
  ('CNC(=O)c1cc(Oc2ccc(NC(=O)Nc3ccc(Cl)c(C(F)(F)F)c3)cc2)ccn1 [sorafenib]', 'y'),
  ('C[C@@H](Oc1cc(-c2cnn(C3CCNCC3)c2)cnc1N)c1c(Cl)ccc(F)c1Cl [crizotinib]', 'n'),
  ('CO[C@H]1C[C@@H]2CC[C@@H](C)[C@@](O)(O2)C(=O)C(=O)N2CCCC[C@H]2C(=O)O[C@H]([C@H](C)C[C@@H]2CC[C@@H](O)[C@H](OC)C2)CC(=O)[C@H](C)/C=C(\C)[C@@H](O)[C@@H](OC)C(=O)[C@H](C)C[C@H](C)/C=C/C=C/C=C/1C [rapamycin]', 'y');

Problem: Quick check, pIC50 >= 6? COc1cc2c(Nc3ccc(Br)cc3F)ncnc2cc1OCC1CCN(C)CC1 [vandetanib]
Solution: n

Problem: Quick check, pIC50 >= 6? C#Cc1cccc(Nc2ncnc3cc(OCCOC)c(OCCOC)cc23)c1 [erlotinib]
Solution: n

Problem: Quick check, pIC50 >= 6? CS(=O)(=O)CCNCc1ccc(-c2ccc3ncnc(Nc4ccc(OCc5cccc(F)c5)c(Cl)c4)c3c2)o1 [lapatinib]
Solution: n

Problem: Quick check, pIC50 >= 6? Cc1ccc(C(=O)Nc2ccc(CN3CCN(C)CC3)c(C(F)(F)F)c2)cc1C#Cc1cnc2cccnn12 [ponatinib]
Solution: y

Problem: Quick check, pIC50 >= 6? C=CC(=O)N1CCC[C@@H](n2nc(-c3ccc(Oc4ccccc4)cc3)c3c(N)ncnc32)C1 [ibrutinib]
Solution: n

Problem: Quick check, pIC50 >= 6? Cc1ccc(Nc2nccc(N(C)c3ccc4c(C)n(C)nc4c3)n2)cc1S(N)(=O)=O [pazopanib]
Solution: n

Problem: Quick check, pIC50 >= 6? Cc1cn(-c2cc(NC(=O)c3ccc(C)c(Nc4nccc(-c5cccnc5)n4)c3)cc(C(F)(F)F)c2)cn1 [nilotinib]
Solution: n

Ref: patent US10083341B2
